Listed below: mCrhr1 Luciferase Reporter Assay IC50 values for each entry.
ASSAYED_TARGET: T1, corticotropin-releasing hormone (CRH) peptide (human and mouse (same sequence), not fully specified)
T1 peptide: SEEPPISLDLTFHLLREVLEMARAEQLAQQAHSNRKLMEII
METHOD_SUMMARY: cell-based or functional assay
Report the figure in nM without appending any unit label.

Recorded mCrhr1 Luciferase Reporter Assay IC50, per entry:
1. PR302334-24 (antibody, human IgG1, kappa, V domains shown) VH: EVQLVESGGGLVKPGGSLRLSCAASGFTFSTYAMSWVRQAPGKGLEWVASIRSGGTTYYPDSVKGRFTISRDNAKNSLYLQMNSLRAEDTAVYYCTRGIDWGQGTTVTVSS VL: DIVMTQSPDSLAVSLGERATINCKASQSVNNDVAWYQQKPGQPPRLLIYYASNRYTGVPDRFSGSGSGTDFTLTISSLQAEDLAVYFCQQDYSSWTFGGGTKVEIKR; 1.82
2. PR302334-8 (antibody, human IgG1, kappa, V domains shown) VH: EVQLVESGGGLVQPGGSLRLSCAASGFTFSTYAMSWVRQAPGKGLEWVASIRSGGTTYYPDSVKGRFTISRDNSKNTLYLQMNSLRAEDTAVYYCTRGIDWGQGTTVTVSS VL: EIVMTQSPATLSVSPGERATLSCKASQSVNNDVAWYQQKPGQAPRLLIYYASNRYTGIPARFSGSGSGTEFTLTISSLQSEDLAVYFCQQDYSSWTFGGGTKVEIKR; 2.61

The record that follows has no mCrhr1 Luciferase Reporter Assay IC50 shown yet.
Short answer for PR004290 (antibody, human IgG1, kappa, V domains shown, Series 1; human IgG1 wildtype Fc; also called Hybridoma Clone 28b3) VH: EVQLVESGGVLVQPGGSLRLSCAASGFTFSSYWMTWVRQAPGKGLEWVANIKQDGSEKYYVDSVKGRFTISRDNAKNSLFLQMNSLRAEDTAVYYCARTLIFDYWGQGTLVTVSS VL: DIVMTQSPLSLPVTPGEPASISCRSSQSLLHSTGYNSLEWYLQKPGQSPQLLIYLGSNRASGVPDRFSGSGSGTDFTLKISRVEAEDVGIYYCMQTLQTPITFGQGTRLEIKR : mCrhr1 Luciferase Reporter Assay IC50 was 5.24
